Species: Danio rerio
protocol_notes: Hepatotoxicity in zebrafish embryo incubated until 7 days post fertilization
Format: organism-based
conditions: in vivo, 168 h
outcome_measure: NOAEL (µM)

Fc1cc(F)cc(-c2cc3nccnc3s2)c1	30
c1ccc(-c2cc3nc4ccccc4nc3s2)cc1	10
Fc1cc(F)cc(-c2cc3nc4ccccc4nc3s2)c1	30
CC(C)(C)c1cc2nc3ccccc3nc2s1	1
CCCc1cc2nc3ccccc3nc2s1	30

----------
protocol_notes: Therapeutic index, ratio of NOAEL to apoptotic EC50 in Zebrafish embryo
Type: organism-based, Danio rerio
conditions: in vivo, read-out: TI
Mark YES for reported selectivity ratio of 3 or greater; mark NO for anything smaller.

CC(C)(C)c1cc2nc3ccccc3nc2s1	NO
c1ccc(-c2cc3nc4ccccc4nc3s2)cc1	NO
Fc1cc(F)cc(-c2cc3nc4ccccc4nc3s2)c1	NO
CCCc1cc2nc3ccccc3nc2s1	YES

----------
Species on record: Danio rerio
protocol_notes: Teratogenicity in zebrafish embryo incubated until 5 days post fertilization
Type: ADME, organism-based
conditions: in vivo, 120 h
NOAEL overview
outcome_measure: NOAEL (µM)

CC(C)(C)c1cc2nc3ccccc3nc2s1	3
Fc1cc(F)cc(-c2cc3nccnc3s2)c1	30
CCCc1cc2nc3ccccc3nc2s1	30
Fc1cc(F)cc(-c2cc3nc4ccccc4nc3s2)c1	30
c1ccc(-c2cc3nc4ccccc4nc3s2)cc1	10
